test_system: Casein kinase I isoform gamma-1 (Homo sapiens) (UniProt Q9HCP0);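 note: reported value is the mean inhibition of CK1 gamma-1 kinase activity across replicate measurements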
Sequence (Q9HCP0 whole entry, looked up, canonical isoform): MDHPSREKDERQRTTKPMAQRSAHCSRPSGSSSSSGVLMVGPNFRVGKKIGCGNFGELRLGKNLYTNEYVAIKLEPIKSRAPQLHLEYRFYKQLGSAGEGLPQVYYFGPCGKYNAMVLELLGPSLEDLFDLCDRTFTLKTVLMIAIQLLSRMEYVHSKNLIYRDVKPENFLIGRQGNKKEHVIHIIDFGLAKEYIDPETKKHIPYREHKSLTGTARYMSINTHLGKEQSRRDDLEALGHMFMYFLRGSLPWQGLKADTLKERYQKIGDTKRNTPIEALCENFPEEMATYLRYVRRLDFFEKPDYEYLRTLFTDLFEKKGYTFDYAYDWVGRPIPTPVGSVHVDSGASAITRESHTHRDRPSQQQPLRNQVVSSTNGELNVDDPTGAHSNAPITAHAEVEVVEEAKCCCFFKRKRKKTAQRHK
experimental_setup: at 1 µM
Note to self: values exactly at 8% are rule met. So inhibition at or above 8% is rule met, below is rule not met.

Prompt: Hi team, for CCn1c(-c2nonc2N)nc2ccccc21 , is the recorded inhibition at or above 8%?
Response: rule not met

Prompt: Hi, just wondering whether CC(C)COC(=O)c1ccc2c(c1)/C(=C/Nc1ccc(S(N)(=O)=O)cc1)C(=O)N2 shows inhibition of 8% or higher.
Response: rule not met

Prompt: Is inhibition at least 8%? Consider CCc1nn2ncccc2c1-c1ccnc(NC2CC2)n1
Response: rule not met

Prompt: Is inhibition at least 8%? Consider COC(=O)Nc1nc2ccc(S(=O)(=O)c3ccc(NC(=O)Nc4cc(C(F)(F)F)ccc4F)cc3)cc2[nH]1
Response: rule not met

Prompt: Quick check: does CCCN1CCC(c2ccc(Nc3nc(Nc4cc(F)ccc4C(N)=O)c4cc[nH]c4n3)c(OC)c2)CC1 have inhibition greater than or equal to 8%?
Response: rule met

Prompt: Quick check, inhibition >= 8%? CCOc1ccc2c(-c3ccnc(Nc4cccc(C(F)(F)F)c4)n3)cnn2n1
Response: rule not met

Prompt: Identify whether the reported inhibition of the following compound is 8% or greater: Nc1nc(-c2ccc(F)cc2)c(-c2ccc3ncccc3n2)s1
Response: rule met

Prompt: Could you tell me if the measured inhibition of COc1ccc(-c2cc(-c3c[nH]nc3-c3ccccn3)ccn2)cc1 reaches 8% or more?
Response: rule not met
